# target_entity: recombinant RORγ Ligand Binding Domain (LBD) protein (Homo sapiens (Human))
# test_summary: Radio-Ligand RORγ Binding Assay (Assay 1)
# measurement_parameters: competition with 25-hydroxy [26,27-3H]-cholesterol, SPA
pKi: −log10 of the molar value.
measured_quantity: pKi

Recorded results for 3 compounds are shown here.
Query: pKi; subject: CCS(=O)(=O)c1ccc(CNC(=O)c2ccc3c(c2)nc(C2CC2)n3C[C@H]2CCN(c3ncc(F)cn3)C2)cc1 < 6.00

Need pKi of O=C(NCc1ccc(S(=O)(=O)CCO)cc1)c1ccc2c(c1)nc(C1CC1)n2Cc1cccc2c1OC(F)(F)O2 , thanks. > 7.00

Recorded pKi for COC(=O)CS(=O)(=O)c1ccc(CNC(=O)c2ccc3c(c2)nc(C(F)(F)F)n3Cc2cccc3c2OC(F)(F)O3)cc1 , please? > 7.00

More entries:
Quick one: pKi for CCS(=O)(=O)c1ccc([C@H](COC)NC(=O)c2ccc3c(c2)nc(C(F)(F)F)n3Cc2cccc3c2OC(F)(F)O3)cc1 ? > 7.00

----------
# target_entity: recombinant RORγ Ligand Binding Domain (LBD) protein (Homo sapiens (Human), UniProt P51449)
# Sequence (P51449 269-508): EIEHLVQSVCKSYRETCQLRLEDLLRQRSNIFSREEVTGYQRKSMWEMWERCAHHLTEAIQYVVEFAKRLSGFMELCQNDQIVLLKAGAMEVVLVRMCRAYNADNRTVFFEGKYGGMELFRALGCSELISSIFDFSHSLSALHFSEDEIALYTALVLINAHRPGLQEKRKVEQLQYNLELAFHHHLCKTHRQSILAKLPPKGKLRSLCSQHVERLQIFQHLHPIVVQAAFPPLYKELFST
# test_summary: Radio-Ligand RORγ Binding Assay (Assay 1)
# measurement_parameters: competition with 25-hydroxy [26,27-3H]-cholesterol, SPA
measured_quantity: Ki

Worked cases, answers included:
Which measured Ki value corresponds to CCS(=O)(=O)c1ccc(CNC(=O)c2ccc3c(c2)nc(C2CC2)n3Cc2ccc(OC(F)(F)F)cc2)cc1 ? < 100 nM

# query: Ki of entry CCS(=O)(=O)c1ccc(CNC(=O)c2ccc3c(c2)nc(C(C)(C)C)n3Cc2cccc3c2OC(F)(F)O3)cc1 < 100 nM

Fill in the blank: the reported Ki of CS(=O)(=O)N1CCC(CNC(=O)c2ccc3c(c2)nc(C2CC2)n3Cc2cccc3c2OC(F)(F)O3)CC1 is ____. < 100 nM

State the recorded Ki for this entry: CCS(=O)(=O)c1ccc([C@@H](CO)NC(=O)c2ccc3c(c2)nc(C2(F)CC2)n3Cc2cccc3c2OC(F)(F)O3)nc1 < 100 nM

Data request, read-out Ki, for CCS(=O)(=O)c1ccc(CNC(=O)c2ccc3c(c2)nc(C(C)(C)OC)n3Cc2cccc3c2OC(F)(F)O3)cc1 < 100 nM

Find the recorded Ki belonging to CCS(=O)(=O)c1ccc(CNC(=O)c2ccc3c(c2)nc(C(F)(F)F)n3Cc2cccc3c2cnn3C)cc1 and report it. > 1000 nM

New cases:
Fill in: Ki of CCS(=O)(=O)c1ccc(CNC(=O)c2ccc3c(c2)nc(C(C)(F)F)n3Cc2cccc3c2OC(F)(F)O3)nc1 is ___ < 100 nM

----------
# target_entity: full-length RORγt in Jurkat cells (Homo sapiens (Human), UniProt P51449)
# Sequence (P51449 other isoform, or with tags, fused parts or gaps): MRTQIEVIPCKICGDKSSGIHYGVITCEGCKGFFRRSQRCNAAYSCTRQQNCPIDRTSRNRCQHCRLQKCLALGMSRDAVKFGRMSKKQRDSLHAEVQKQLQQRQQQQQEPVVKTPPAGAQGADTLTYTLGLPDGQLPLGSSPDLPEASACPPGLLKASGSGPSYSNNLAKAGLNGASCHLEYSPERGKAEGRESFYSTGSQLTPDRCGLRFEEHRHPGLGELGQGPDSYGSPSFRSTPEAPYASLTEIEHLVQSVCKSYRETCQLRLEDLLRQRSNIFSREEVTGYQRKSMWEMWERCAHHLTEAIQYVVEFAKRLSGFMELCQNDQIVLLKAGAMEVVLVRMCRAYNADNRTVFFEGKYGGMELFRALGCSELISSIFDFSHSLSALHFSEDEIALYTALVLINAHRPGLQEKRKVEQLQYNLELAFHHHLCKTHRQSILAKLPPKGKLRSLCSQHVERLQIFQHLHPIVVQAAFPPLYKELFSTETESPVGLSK
# test_summary: RORγt 5×RORE Assay in Jurkat Cells (Assay 2)
# measurement_parameters: 5×RORE Nanoluc luciferase reporter
pIC50: −log10 of the molar value.
I'd be grateful if you could share measured pIC50 for these entries.

Requested field: pIC50. Item: CCS(=O)(=O)c1ccc(CNC(=O)c2ccc3c(c2)nc(C(F)(F)F)n3Cc2cccc3c2OC(F)(F)O3)[n+]([O-])c1 [I-161] > 7.00

For the compound shown here, CCS(=O)(=O)c1ccc([C@H](COC)NC(=O)c2ccc3c(c2)nc(C2(F)CC2)n3Cc2cccc3c2OC(F)(F)O3)cc1 [I-61] , give the reported pIC50. > 7.00

# pIC50 lookup, item CCS(=O)(=O)c1ccc([C@H](CO)NC(=O)c2ccc3c(c2)nc(C2CCC2)n3Cc2cccc3c2OC(F)(F)O3)nc1 [I-132.1] > 7.00

pIC50 lookup needed for CCS(=O)(=O)c1ccc(CNC(=O)c2ccc3c(c2)nc(C(F)(F)F)n3Cc2cc(OC)cc(OC)c2)cc1 [I-82] , thanks. < 6.00

Each compound below has a reported value. Please supply its pIC50.
1. CCS(=O)(=O)c1ccc([C@H](CO)NC(=O)c2ccc3c(c2)nc(C(F)(F)F)n3Cc2cccc3c2OC(F)(F)O3)cc1 [I-11.1]
2. CCS(=O)(=O)c1ccc([C@H](COCC(=O)O)NC(=O)c2ccc3c(c2)nc(C(F)(F)F)n3Cc2cccc3c2OC(F)(F)O3)cc1 [I-166]
3. CCS(=O)(=O)c1ccc(CNC(=O)c2ccc3c(c2)nc(C(F)(F)F)n3Cc2ccc(OC(F)(F)F)cc2)cc1 [I-84]
4. CCS(=O)(=O)c1ccc(CNC(=O)c2ccc3c(c2)nc(C(=O)OC)n3Cc2cccc3c2OC(F)(F)O3)cc1 [I-173]
5. CCS(=O)(=O)c1ccc(CNC(=O)c2ccc3c(c2)nc([C@@H]2C[C@H]2C#N)n3Cc2cccc3c2OC(F)(F)O3)cc1 [I-57]
6. CCS(=O)(=O)c1ccc(CNC(=O)c2ccc3c(c2)nc(C(F)F)n3Cc2cccc3c2OC(F)(F)O3)cc1 [I-37]
7. O=C(NCc1ccc(S(=O)(=O)CCO)cc1)c1ccc2c(c1)nc(C(F)(F)F)n2Cc1cccc2c1OC(F)(F)O2 [I-45]
8. CCS(=O)(=O)c1ccc(CNC(=O)c2ccc3c(c2)nc(C2CC2)n3Cc2cccc(OC)c2OC)cc1 [I-119]

1: > 7.00; 2: < 6.00; 3: 6.00 to 7.00; 4: 6.00 to 7.00; 5: > 7.00; 6: > 7.00; 7: > 7.00; 8: > 7.00

Quick one: give me pIC50 for each item below, same order please.
1. CCS(=O)(=O)c1ccc(CNC(=O)c2ccc3c(c2)nc(C(F)(F)F)n3CC2CCN(c3ncc(F)cn3)CC2)cc1 [I-158]
2. CCS(=O)(=O)c1ccc(CNC(=O)c2ccc3c(c2)nc([C@H](C)OC)n3Cc2cccc3c2OC(F)(F)O3)cc1 (mixture of isomers) [I-49.1]
3. CCS(=O)(=O)c1ccc(CNC(=O)c2ccc3c(c2)nc(C(F)(F)F)n3Cc2cccc3c2cnn3C)cc1 [I-141]
4. CCS(=O)(=O)c1ccc(CNC(=O)c2ccc3c(c2)nc(C2CC2)n3Cc2cc(OC)cc(OC(F)(F)F)c2)cc1 [I-115]
5. CCS(=O)(=O)c1ccc([C@H](COC)NC(=O)c2ccc3c(c2)nc(C(F)(F)F)n3Cc2cccc3c2OC(F)(F)O3)nc1 [I-62]
6. CCS(=O)(=O)c1ccc([C@@H](CO)NC(=O)c2ccc3c(c2)nc(C(F)F)n3Cc2cccc3c2OC(F)(F)O3)nc1 [I-131.2]
7. CCc1nc2cc(C(=O)N[C@@H](CO)c3ccc(S(=O)(=O)CC)cc3)ccc2n1Cc1cccc2c1OC(F)(F)O2 [I-16]
8. CNC(=O)CS(=O)(=O)N1CCC(CNC(=O)c2ccc3c(c2)nc(C2CC2)n3Cc2cccc3c2OC(F)(F)O3)CC1 [I-79]

1: < 6.00; 2: > 7.00; 3: 6.00 to 7.00; 4: > 7.00; 5: > 7.00; 6: 6.00 to 7.00; 7: > 7.00; 8: 6.00 to 7.00

Below are some compounds; for each one, tell me its pIC50.
1. CS(=O)(=O)c1ccc(CNC(=O)c2ccc3c(c2)nc(C(F)F)n3Cc2cccc3c2OC(F)(F)O3)cc1 [I-50]
2. CCS(=O)(=O)c1ccc(CNC(=O)c2ccc3c(c2)nc(C(C)C)n3Cc2cccc3c2OC(F)(F)O3)cc1 [I-31]
3. CCS(=O)(=O)c1ccc([C@@H](CO)NC(=O)c2ccc3c(c2)nc(C2CCC2)n3Cc2cccc3c2OC(F)(F)O3)nc1 [I-132.2]
4. CS(=O)(=O)c1ccc(CNC(=O)c2ccc3c(c2)nc(C2CC2)n3Cc2cccc3c2OC(F)(F)O3)cc1 [I-34]
5. N#Cc1ccc(CC(=O)Nc2ccc3c(c2)nc(C(F)(F)F)n3Cc2cccc3c2OC(F)(F)O3)cc1 [I-6]
6. CCS(=O)(=O)c1ccc(CNC(=O)c2ccc3c(c2)nc(C(F)(F)F)n3Cc2cccc3c2OCO3)cc1 [I-98]
7. CCS(=O)(=O)c1ccc(CNC(=O)c2ccc3c(c2)nc(C2CC2)n3Cc2cc(O)cc(OC(F)(F)F)c2)cc1 [I-153]

> 7.00
> 7.00
> 7.00
> 7.00
< 6.00
> 7.00
> 7.00

Returns the measured pIC50 for the input compound. Input: CCS(=O)(=O)c1ccc(CNC(=O)c2ccc3c(c2)nc(C(F)(F)F)n3Cc2cccc3cn(C)nc23)cc1 [I-139] > 7.00

Cited source for all entries: patent US10829481B2
